Biological target: EPAC1 (Homo sapiens)
Construct: HEK293 cell lines stably expressing Flag-tagged Rap1A and full-length EPAC1 or EPAC2 are proposed
Sequence (O95398 1-923): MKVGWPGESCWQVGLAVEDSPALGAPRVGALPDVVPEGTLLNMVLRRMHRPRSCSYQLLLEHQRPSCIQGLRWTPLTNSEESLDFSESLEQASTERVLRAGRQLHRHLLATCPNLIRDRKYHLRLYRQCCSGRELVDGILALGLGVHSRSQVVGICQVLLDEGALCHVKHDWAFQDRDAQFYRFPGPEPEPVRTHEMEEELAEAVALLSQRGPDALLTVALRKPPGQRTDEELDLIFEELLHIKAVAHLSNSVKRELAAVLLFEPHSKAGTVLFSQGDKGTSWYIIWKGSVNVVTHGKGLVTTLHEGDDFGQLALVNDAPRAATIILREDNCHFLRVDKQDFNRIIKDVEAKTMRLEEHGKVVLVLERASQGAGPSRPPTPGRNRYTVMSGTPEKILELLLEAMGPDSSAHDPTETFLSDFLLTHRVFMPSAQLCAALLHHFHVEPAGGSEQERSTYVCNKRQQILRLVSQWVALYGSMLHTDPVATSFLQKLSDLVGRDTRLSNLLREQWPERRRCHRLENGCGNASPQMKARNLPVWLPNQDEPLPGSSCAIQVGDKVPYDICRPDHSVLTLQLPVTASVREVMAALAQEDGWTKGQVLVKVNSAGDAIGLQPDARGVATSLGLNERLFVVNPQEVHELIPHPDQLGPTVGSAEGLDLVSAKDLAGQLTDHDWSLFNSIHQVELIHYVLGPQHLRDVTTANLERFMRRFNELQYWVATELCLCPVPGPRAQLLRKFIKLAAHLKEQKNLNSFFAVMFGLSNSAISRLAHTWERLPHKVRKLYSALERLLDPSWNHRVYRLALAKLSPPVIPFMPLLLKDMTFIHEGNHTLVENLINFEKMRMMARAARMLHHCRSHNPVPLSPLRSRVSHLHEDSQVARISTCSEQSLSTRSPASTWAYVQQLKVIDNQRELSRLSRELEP
Experiment: Cellular Rap1 assay (ELISA for Rap1-GTP) in HEK293/hEPAC1/Flag-Rap1 cells
Conditions: stimulated by 1 µM Forskolin, 30 min pretreatment, HEK293/hEPAC1/Flag-Rap1 cells; read-out: apparent IC50, inhibition of cellular EPAC1 activity
RECORDED METRIC: IC50
Give the number first and the unit second.

Please look up its IC50: CC(C)(C)c1cc(C(=O)/C(C#N)=N/Nc2cc(Cl)c(Cl)c(Cl)c2)no1 [NY-0123]
4.9 µM
